- study_system: Glycogen synthase kinase-3 alpha (Homo sapiens) (UniProt P49840)
- Sequence (P49840 whole entry, looked up): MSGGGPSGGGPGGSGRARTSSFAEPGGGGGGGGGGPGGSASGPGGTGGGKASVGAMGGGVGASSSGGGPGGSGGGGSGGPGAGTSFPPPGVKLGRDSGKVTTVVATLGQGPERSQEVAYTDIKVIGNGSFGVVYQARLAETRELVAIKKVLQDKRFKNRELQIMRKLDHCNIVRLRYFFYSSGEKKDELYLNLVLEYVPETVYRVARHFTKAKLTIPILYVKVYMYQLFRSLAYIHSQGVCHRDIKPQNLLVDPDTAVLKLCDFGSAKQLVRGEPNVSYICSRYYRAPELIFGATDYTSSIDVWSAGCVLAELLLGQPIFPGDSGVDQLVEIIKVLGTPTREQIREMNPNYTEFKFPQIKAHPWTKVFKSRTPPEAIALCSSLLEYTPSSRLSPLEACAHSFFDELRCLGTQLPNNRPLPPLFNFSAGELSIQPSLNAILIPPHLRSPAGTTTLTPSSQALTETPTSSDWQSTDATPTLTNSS
- experiment: concentration-response blocking of human GSK3A – biochemical, luminescence, cell-free homogeneous, retest, dose response (AID 463203)
- measurement_context: GSK-3 alpha enzyme, ADP-Glo luminescence, 60 min
The source made the active and inactive calls.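 The calls were made as follows: active = more than half of replicate measurements showing over 20% loss of kinase signal relative to plate controls; inconclusive = some but at most half of replicates over 20% loss; inactive = no replicate over 20% signal loss.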
Pick one: active, inactive

// below: answered compounds
c1ccc(-c2noc(CSc3nnnn3-c3ccccc3)n2)cc1	inactive
COc1ccc(Br)cc1C1CC(=O)N2CN(Cc3ccccc3)CSC2=C1C#N (stereo unspecified)	inactive
COc1cccc(C2C3(C#N)C(N)=NC(OC)(OC)C23C#N)c1 (stereo unspecified)	inactive

Q: State the result this test recorded for CCOC(=O)c1nnn(-c2nonc2N)c1-c1ccc(Br)cc1 .
Ans: active

Q: Now the compound CC1(C)Cc2cccc(C(=O)NCc3ccco3)c2O1
Ans: inactive

Q: Now the compound Cc1ccc(-c2c3c(=O)n(C)c(=O)n(C)c3cn2Cc2ccccn2)cc1
Ans: inactive

Origin of the recorded values: PubChem BioAssay AID463203
